The reader will find reported pIC50 values listed item by item below.
ASSAY_SYSTEM: Complement factor D (Homo sapiens)
Sequence (P00746 whole entry): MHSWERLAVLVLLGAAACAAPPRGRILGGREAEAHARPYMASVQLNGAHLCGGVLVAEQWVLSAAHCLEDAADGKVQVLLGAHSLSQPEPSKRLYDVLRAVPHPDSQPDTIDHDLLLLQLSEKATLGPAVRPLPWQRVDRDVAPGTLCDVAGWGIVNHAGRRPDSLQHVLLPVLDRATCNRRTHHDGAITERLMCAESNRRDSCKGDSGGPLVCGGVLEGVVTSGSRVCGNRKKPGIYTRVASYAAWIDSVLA
MEASUREMENT_DESCRIPTION: Factor D Assay: Human Factor D (purified from human serum, Complement Technology, Inc.) at 80 nM final concentration is incubated with test compound at various concentrations for 5 min at room temperature in 50 mM Tris, 1M NaCl, pH 7.5. A synthetic substrate Z-L-Lys-SBz and DTNB (Ellman's reagent) are added to final concentrations of 100 μM each. Absorbance at 405 nm (A405) is recorded at 30 second intervals for 30 min using a microplate spectrophotometer. IC50 values are calculated by nonlinear regression of complement Factor D reaction rates as a function of test compound concentration.
pIC50: −log10 of the molar value.

SMILES: COc1ccccc1CNC(=O)[C@@H]1C[C@@]2(C)C[C@H]2N1C(=O)Cn1nc(C(C)=O)c2cc(-c3cnc(C)nc3)cc(C)c21
pIC50: > 6.00

SMILES: CCNC(=O)[C@@H]1C[C@@]2(C)C[C@H]2N1C(=O)Cn1nc(C(C)=O)c2cc(-c3cnc(C)nc3)cc(C)c21
pIC50: > 6.00

SMILES: CC(=O)c1nn(CC(=O)N2[C@H](C(=O)N[C@@H](C)C(F)=C(C)C)C[C@@]3(C)C[C@@H]23)c2cnc(-c3cnc(C)nc3)cc12
pIC50: > 6.00

SMILES: Cc1ncc(-c2cc(C)c3c(c2)c(C(=O)N2CC4(CCC4)C2)nn3CC(=O)N2[C@H](C(=O)Nc3nc(Br)ccc3C)C[C@@]3(C)C[C@@H]23)cn1
pIC50: < 5.00

SMILES: CC(=O)c1nn(CC(=O)N2[C@H](C(=O)Nc3cc(F)cc(Br)n3)C[C@@]3(C)C[C@@H]23)c2c(C)nc(-c3cnc(C)nc3)cc12
pIC50: > 6.00

SMILES: COCc1ncc(-c2cc3c(C(C)=O)nn(CC(=O)N4[C@H](C(=O)Nc5nc(Br)ccc5C)C[C@@]5(C)C[C@@H]45)c3cn2)cn1
pIC50: > 6.00

SMILES: CC(=O)c1nn(CC(=O)N2[C@H](C(=O)NCc3cccc(Cl)c3F)C[C@@]3(C)C[C@@H]23)c2c(C)cc(-c3cnc(C)nc3)cc12
pIC50: > 6.00

SMILES: CC(=O)c1nn(CC(=O)N2[C@H](C(=O)NCc3ccccc3F)C[C@@]3(C)C[C@@H]23)c2c(C)cc(-c3cnc(C)nc3)cc12
pIC50: > 6.00

SMILES: CCC[C@@]12C[C@@H](C(=O)Nc3nc(Br)ccc3C)N(C(=O)Cn3nc(C(C)=O)c4cc(-c5cnc(C)nc5)ncc43)[C@@H]1C2
pIC50: > 6.00

SMILES: CNC(=O)c1nn(CC(=O)N2[C@H](C(=O)Nc3nc(Br)ccc3C)C[C@@]3(C)C[C@@H]23)c2ccc(-c3cnc(C)nc3)cc12
pIC50: > 6.00

SMILES: C=CCCS(=O)(=O)NC[C@@]12C[C@@H](C(=O)Nc3nc(Br)ccc3C=C)N(C(=O)Cn3nc(C(C)=O)c4cc(-c5cnc(C)nc5)ccc43)[C@@H]1C2
pIC50: > 6.00

SMILES: CC(=O)c1nn(CC(=O)N2[C@H](C(=O)Nc3nc(Br)ccc3C)C[C@@]3(CN(C)C)C[C@@H]23)c2cnc(-c3cnc(C)nc3)cc12
pIC50: > 6.00

SMILES: CC(=O)c1nn(CC(=O)N2[C@H](C(=O)Nc3cccc(Br)n3)C[C@@]3(C)C[C@@H]23)c2c(C)cc(-c3cnc(C)nc3)cc12
pIC50: > 6.00

Cited source: ChEMBL document CHEMBL5728630
